Where these numbers come from: PubChem BioAssay

Please provide measured inhibition for the entries that follow.
test.target: L-lactate dehydrogenase (Plasmodium falciparum (isolate CDC / Honduras))
test.protocol: PfLDH activity inhibition – cell lysate, 3D7 strain, counter-screen for P. falciparum growth inhibition project (AID 2304);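 note: 0% = vehicle and 100% = reference inhibitor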
measurement.conditions: P. falciparum 3D7 crude extract, LDH APAD/NBT absorbance; at 2 µM; active compounds read high
Give the value in % but do not write % after it.

query: What value of inhibition has been recorded for this entry: O=C(C=Cc1ccc(Cl)c(Cl)c1)NCCCCCN1CCC(CCCNC(=O)/C=C/c2ccccc2)CC1
result: -9

query: Which measured inhibition value corresponds to CN1CCC(COc2ccc(CN3CCC(NC(=O)c4cccc(Cl)c4)CC3)cc2)CC1 ?
result: -2

query: If you can, please state the reported inhibition value of COc1cccc(C(=O)Nc2nc3c(s2)CCN(Cc2ccccc2N2CCNCC2)CC3)c1 .
result: -6

query: So what does the record say about inhibition for COc1cc2nc(NCCC(C)C)n3nc(-c4ccccc4)nc3c2cc1OC ?
result: 4

query: Look up inhibition: O=C(NCCCCCN1CCC(c2c[nH]c3ccccc23)CC1)c1ccc(-c2ccccc2)nc1
result: 1

---

test.target: Calcium-dependent protein kinase 1 (Plasmodium falciparum (isolate 3D7))
test.protocol: PfCDPK1 kinase inhibitors, biochemical, TCAMS library (AID 1159585);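 note: inhibitors leave more ATP so luminescence rises with inhibition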
measurement.conditions: recombinant PfCDPK1, Kinase-Glo ATP depletion luminescence
Potency and affinity values are given separately. Calls of active or inactive are those of the source. The limit is not given here; nearly all actives have IC50 up to about 0.98 µM.
property.label: outcome

Take a look at these entries with their results.
{"molecule": "CCCCCN1CCCC1CNS(=O)(=O)c1ccc(C(=O)Nc2ccc(C(F)(F)F)cc2)cc1 (stereo not given)", "test.target": "Calcium-dependent protein kinase 1 (Plasmodium falciparum (isolate 3D7))", "value.observed": "inactive"}
{"molecule": "O=C(Cn1c(CCc2cccc(F)c2F)nc(=O)c2ccccc21)N(Cc1ccc(-c2ccc(C(F)(F)F)cc2)cc1)C1CCN(C2CCSCC2)CC1", "test.target": "Calcium-dependent protein kinase 1 (Plasmodium falciparum (isolate 3D7))", "value.observed": "inactive"}
{"molecule": "CN1CCN(CCCCNc2c3ccccc3nc3ccccc23)CC1", "test.target": "Calcium-dependent protein kinase 1 (Plasmodium falciparum (isolate 3D7))", "value.observed": "inactive"}
{"molecule": "N#CN1CC[C@@H](NS(=O)(=O)Cc2ccc(Cl)c(Cl)c2)C1", "test.target": "Calcium-dependent protein kinase 1 (Plasmodium falciparum (isolate 3D7))", "value.observed": "inactive"}

Next:
query: Request body: readout outcome, system Calcium-dependent protein kinase 1 (Plasmodium falciparum (isolate 3D7)), query COC(=O)c1ccc2nc(-c3cc(-c4cccc(-c5ccccc5)c4)cnc3N)[nH]c2c1 . Return the value.
result: inactive

---

test.protocol: inhibition of 3D7 malaria parasite growth – strain 3D7 (AID 2306);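 note: 0% = DMSO wells and 100% = chloroquine plus artemisinin control wells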
measurement.conditions: P. falciparum 3D7 erythrocytic growth, LDH absorbance, 72 h; at 2 µM; active compounds read high
property.label: growth inhibition (%)
Value expressed in %; do not type the unit.

query: Query (compound): CN(C)CCCOc1cccc(NC(=O)Nc2ccc(-c3ccccc3)cc2)c1 ; field requested: growth inhibition
result: 91

query: Find the recorded growth inhibition belonging to CN1CCN(CC(=O)Nc2cccc(-c3cccc(-c4nc5ccccc5[nH]4)c3)c2)CC1 and report it.
result: 90

query: // returns reported growth inhibition for input N=c1n(CCN2CCCCC2)c2ccccc2n1CC(=O)c1cccc([N+](=O)[O-])c1
result: 94

query: Tell me the measured growth inhibition of Cc1ccc(-c2ccn(Cc3cccc(OCc4ccccc4)c3)n2)cn1 (tested in a mixture with another compound) , please.
result: 82

query: Field request: growth inhibition | item: Cc1cccc2[nH]c(-c3cccc(-c4cccc(C(=O)NCCc5cn(C)cn5)c4)c3)nc12
result: 101

---

test.target: Plasmodium falciparum protein kinase 6 (PK6, PF3D7_1337100) (UniProt Q8IDW1)
test.protocol: PfPK6 kinase inhibitors, biochemical, TCAMS library (AID 1159586)
measurement.conditions: recombinant PfPK6, Kinase-Glo ATP depletion luminescence
Potency and affinity values are given separately. Active and inactive are the calls of the source. The rule behind the calls is not given here.
property.label: outcome

Reference set (6 entries):
{"molecule": "COc1cccc2cc(C(=O)N[C@@H](CC(C)C)C(=O)NC3CC[C@@H](C)N(C(=O)Nc4ccncc4)CC3=O)oc12 (stereo not given in full)", "outcome": "inactive"}
{"molecule": "CCc1cn2c3c(cc(C(=O)N[C@@H](Cc4ccccc4)[C@H](O)CNC4CCCC4)cc13)N(C)S(=O)(=O)CC2", "outcome": "inactive"}
{"molecule": "O=C(Nc1ccc2c(c1)CCC2)N[C@H]1CCN(Cc2ccc(OCCCN3CCCCC3)cc2)C1", "outcome": "inactive"}
{"molecule": "O=S(=O)(Nc1ccc(CCN2CCC(N3CCCCC3)CC2)cc1)c1ccc(Cl)cc1", "outcome": "inactive"}
{"molecule": "Cc1nc2ccc3ccc(CNc4ccc(C#N)cc4)cc3c2c(=O)[nH]1", "outcome": "inactive"}
{"molecule": "COc1ccc(NC(=O)CCNc2cc(C)nc(NCCc3ccc(F)cc3)n2)cc1", "outcome": "inactive"}

query: Field: outcome (Plasmodium falciparum protein kinase 6 (PK6, PF3D7_1337100) (UniProt Q8IDW1)). Entry: COc1cc(-n2c(CN3CCCC3)nc3cc(-c4ccc(Cl)cc4)sc3c2=O)ccc1OCCN1CCCC1
result: inactive

---

test.protocol: antimalarial activity against Dd2 strain (AID 2302);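 note: 0% = DMSO untreated growth and 100% = chloroquine plus artemisinin killed control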
measurement.conditions: P. falciparum Dd2 in RBCs, LDH growth readout, 72 h; at 2 µM; active compounds read high
Calls of active or inactive are those of the source.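 How the source made its calls: active means growth inhibition above 50% at the single 2 µM test dose, taken to imply half-maximal potency below 2 µM; inactive means the rest.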
property.label: growth inhibition

query: Query: growth inhibition; subject: CN1CCCCC1CCc1cc(C(=O)Nc2ccc(-c3ccc(O)cc3)cc2)ccc1O (stereo not given)
result: 11% (inactive)

query: Tell me the measured growth inhibition of COc1ccc2nccc([C@@H](O)CN3CCC(NCc4ccc5sc(=O)[nH]c5c4)CC3)c2c1 , please.
result: -3% (inactive)

query: # growth inhibition lookup, item Cc1ccccc1C(O)CNc1ccnc(Nc2cccc(C#N)c2)n1 (stereo not given)
result: 12% (inactive)

query: Form field: reported growth inhibition of O=C(NCc1cccc(C(F)(F)F)c1)c1ccc(-c2nc3cc(F)c(F)cc3[nH]2)cc1
result: 7% (inactive)

query: Given the entry Cc1cc(N[C@@H](Cc2ccccc2)C(=O)Nc2ccccc2)nc(NCCc2ccc(F)cc2)n1 , report its measured growth inhibition.
result: 81% (active)

query: Dear colleague, I am looking for the recorded growth inhibition of the following compound: C[C@H]1[C@H](c2cccc(Cl)c2)OCC(C)(C)N1C(=O)CCN1CCCCC1
result: 5% (inactive)

query: Return reported growth inhibition; argument: CN1CCCN(Cc2ccc(-c3cccc(NC(=O)c4ccc(C#N)cc4)c3)cc2)CC1
result: 26% (inactive)

query: Looking for the measured growth inhibition of COc1ccc2nccc([C@@H](O)CN3CCC(NCC4COc5ccccc5O4)CC3)c2c1 (stereo not given in full) , can you help?
result: 94% (active)

query: # get_value(readout='growth inhibition', item= O=C(NCCCN1CCC(NC(=O)c2ccc(-c3cccnc3)cc2)CC1)c1ccc(Cl)c(Cl)c1 )
result: 23% (inactive)

query: Item under review: O=C(Nc1ccc(-c2cccc(-c3nc4ccccc4[nH]3)c2)cc1)Nc1ccc(F)c(F)c1F . Reported growth inhibition?
result: 96% (active)

query: I am curious: what growth inhibition value has been reported for O=C(Nc1nc(-c2ccccn2)cc2ccccc12)c1cccc(Cl)c1 ?
result: 72% (active)

query: Which measured growth inhibition value corresponds to Cc1cccc(CNc2nc(C)cc(N[C@@H](Cc3ccccc3)C(=O)NC3CCCC3)n2)c1 ?
result: 97% (active)

query: Fill in: growth inhibition of CC(=O)c1ccc(-c2ccccc2)s1 is ___
result: 2% (inactive)

query: // query growth inhibition value for entry Fc1ccc2nc(-c3ccc(-c4ccc(CN5CCCCC5)cc4)s3)[nH]c2c1
result: 100% (active)

query: Could you share which growth inhibition value was measured for COc1cc(NCC(CN)Cc2ccc3c(c2)OCO3)nc2ccccc12 (stereo not given) ?
result: 6% (inactive)

query: Sample Cc1ccc2nc(C)n(C3CCN(C(=O)Cc4ccc(F)c(F)c4)CC3)c2c1 — what was its growth inhibition?
result: 100% (active)

query: I would be grateful if you could share the reported growth inhibition for Cc1cc(N2CCNCC2)c2cc(NC(=O)Nc3ccc(Cl)c(Cl)c3)ccc2n1 .
result: 86% (active)

query: I have this compound here, COc1ccc2c(NN=CC=Cc3ccccc3)ccnc2c1 , and I need its recorded growth inhibition.
result: 100% (active)

query: // lookup growth inhibition for CCc1ccc(C2CCN(CCCCNC(=O)c3ccc(-c4ccc(C(F)(F)F)cc4)cc3)CC2)c(OCCO)c1
result: 69% (active)

query: Give its growth inhibition value. Item: Fc1ccc2nc(-c3ccc(-c4ccc(CNCC5CCCO5)cc4)s3)[nH]c2c1 (stereo not given)
result: 99% (active)
